pIC50 values by entry
- Tested on: Blood cancer cells RS4; 11
- assayInfo: CellTiter Glo test: growth inhibition of cells
- Type: cell-based
- recordedConditions: Homo sapiens, 11 cells, 72 h, cell viability
pIC50: −log10 of the molar value.

Here is how some compounds turned out for pIC50.
compound	assayEndpoint	valueObserved
O=C1N/C(=C\c2c[nH]c3cc(Cl)ccc23)C(=O)N1C(CO)c1ccc(Cl)c(F)c1 (stereo not drawn) [Compound 79]	pIC50	≥ 6.00
Cc1c(Cl)ccc2c(/C=C3\NC(=O)N(C(C(=O)NCC45CCC(O)(CC4)CC5)c4ccc(F)c(F)c4)C3=O)c[nH]c12 (stereo not drawn) [Compound 64]	pIC50	≥ 6.00
Cc1c(Cl)ccc2c(/C=C3\NC(=O)N(C(CO)c4ccc(Cl)c(F)c4)C3=O)c[nH]c12 (stereo not drawn) [Compound 78]	pIC50	≥ 6.00
N#Cc1c(F)cc(CN2C(=O)N/C(=C\c3c[nH]c4c(F)c(Cl)ccc34)C2=O)cc1F [Compound 35]	pIC50	≥ 6.00

Request: I am curious: what pIC50 value has been reported for N#Cc1ccc(C(C(=O)NC(CO)CO)N2C(=O)N/C(=C\c3c[nH]c4cc(Cl)ccc34)C2=O)cc1 (stereo not drawn) [Compound 31] ?
Result: 5.00 to 6.00

Request: Also need Cc1c(Cl)ccc2c(/C=C3\NC(=O)N([C@@H](CO)c4ccc(C#N)cc4)C3=O)c[nH]c12 [Compound 96] , thanks.
Result: ≥ 6.00

Request: Also need Cc1c(Cl)ccc2c(/C=C3\NC(=O)N(C(C(=O)NC(CO)CO)c4ccc(C#N)cc4)C3=O)c[nH]c12 (stereo not drawn) [Compound 32] , thanks.
Result: 5.00 to 6.00

Request: Also need O=C(NC(CO)CO)C(c1ccc(Cl)cc1)N1C(=O)N/C(=C\c2c[nH]c3c(F)c(Cl)ccc23)C1=O (stereo not drawn) [Compound 28] , thanks.
Result: ≥ 6.00

Request: Also need N#Cc1ccc(C(C(=O)NCCO)N2C(=O)N/C(=C\c3c[nH]c4cc(Cl)ccc34)C2=O)cc1 (stereo not drawn) [Compound 61] , thanks.
Result: 5.00 to 6.00

Request: Also need O=C1N/C(=C\c2c[nH]c3c(F)c(Cl)ccc23)C(=O)N1Cc1c(F)cc(Cl)cc1F [Compound 102] , thanks.
Result: ≥ 6.00

Request: Also need N#Cc1ccc(CN2C(=O)N/C(=C\c3c[nH]c4cc(Cl)ccc34)C2=O)cc1F [Compound 20] , thanks.
Result: ≥ 6.00
